Molecular target: T1, full-length human GIPR with an N-terminal FLAG tag (human, UniProt P48546 22-466)
T1 sequence (looked up): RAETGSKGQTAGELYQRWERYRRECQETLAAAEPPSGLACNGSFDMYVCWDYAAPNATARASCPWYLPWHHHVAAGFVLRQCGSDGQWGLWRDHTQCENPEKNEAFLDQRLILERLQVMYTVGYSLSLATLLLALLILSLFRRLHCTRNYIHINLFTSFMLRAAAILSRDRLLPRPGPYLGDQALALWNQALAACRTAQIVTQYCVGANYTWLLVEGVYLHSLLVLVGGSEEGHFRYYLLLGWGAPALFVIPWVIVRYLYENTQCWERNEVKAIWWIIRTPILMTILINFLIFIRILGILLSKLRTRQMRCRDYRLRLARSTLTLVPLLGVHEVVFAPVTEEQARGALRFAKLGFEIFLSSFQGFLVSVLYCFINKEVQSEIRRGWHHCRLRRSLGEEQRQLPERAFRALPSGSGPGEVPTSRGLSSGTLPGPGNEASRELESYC
Assay: cell-based or functional assay
Starred links: 1 amine or outer side, 2 acyl side, 3 side chain; linkers in the order of their positions; H or OH if unused. Non-standard residues stand in square brackets, D forms with d. Groups on a side chain read outwards from the residue. No end group written: not given here. *: point of attachment. C20 diacid = O=C(O)CCCCCCCCCCCCCCCCCCC(=O)*; C18 diacid = O=C(O)CCCCCCCCCCCCCCCCC(=O)*; C17 diacid = O=C(O)CCCCCCCCCCCCCCCC(=O)*; γGlu = O=C(O)[C@H](CCC(=O)[*:2])N[*:1]; NMeY = CN[C@@H](Cc1ccc(O)cc1)C(=O)O; AEEA = NCCOCCOCC(=O)O; Aib = CC(C)(N)C(=O)O
measurement.label: Human GIPR cAMP EC50, HEK293T (pM)
Answers are plain numbers, in pM.

Below: 4 binders and their reported Human GIPR cAMP EC50, HEK293T.
>  <binder>
YXEGTFISDYSIXXDRAAQADFVEWLLAQRG (N-terminus H; Aib at 2,13; Lys(G5-C18 diacid) at 14; C-terminal OH) [Compound No. 148]

>  <measurement.label>
Human GIPR cAMP EC50, HEK293T

>  <numeric.result>
0.4

$$$$
>  <binder>
[NMeY][Aib]EGTFISDYSI[Aib]LDRK([AEEA-AEEA-γGlu-γGlu-C17 diacid])AQ[Aib]NFVNWLLAQRPSSGAPPPS-NH2 [Compound No. 15]

>  <measurement.label>
Human GIPR cAMP EC50, HEK293T

>  <numeric.result>
0.3

$$$$
>  <binder>
[NMeY][Aib]EGTFISDYSI[Aib]LDR[Aib]K([2OEGgEgE-C18 diacid])Q[Aib]NFVNWLLAQRG-OH [Compound No. 74]

>  <measurement.label>
Human GIPR cAMP EC50, HEK293T

>  <numeric.result>
0.5

$$$$
>  <binder>
[NMeY][Aib]EGTFISDYSIALDR[Aib]K([AEEA-AEEA-γGlu-C17 diacid])Q[Aib]DFVNWLLAQRPSSGAPPPS-NH2 [Compound No. 25]

>  <measurement.label>
Human GIPR cAMP EC50, HEK293T

>  <numeric.result>
1.9

$$$$

// each binder listed below needs its Human GIPR cAMP EC50, HEK293T
1. YXEGTFISDYSIAXDRXAQKDFVEWLLAQRG (N-methyl Tyr 1; Aib at 2,17; Lys(G5-C18 diacid) at 14; 'K1' at 20 and 'E1' at 24 as printed; C-terminal OH) [Compound No. 121]
2. YXEGTFISDYSIXXDRXAQXDFVNWLLAQSPSSGAPPPS (N-methyl Tyr 1; Aib at 2,13,17,20; Lys(G5-C18 diacid) at 14; C-terminal NH2) [Compound No. 48]
3. [NMeY][Aib]EGTFISDYSIALDR[Aib]AQ[Aib]K([2OEGgEgE-C18 diacid])FVNWLLAQSPG-OH [Compound No. 86]
4. [NMeY][Aib]EGTFISDYSI[Aib]LDR[Aib]AQ[Aib]K([2OEGgEgE-C18 diacid])FVNWLLAQKG-OH [Compound No. 66]
5. YXEGTFISDYSIXXDRXAQXDFVEWLLAQRG (N-terminus H; Aib at 2,13,17,20; Lys(G5-C18 diacid) at 14; C-terminal OH) [Compound No. 139]
6. YXEGTFISDYSIALDSXAQXDFVNWLLAQKG (N-methyl Tyr 1; Aib at 2,20; Lys(G5-C18 diacid) at 17; C-terminal OH) [Compound No. 78]
7. [NMeY][Aib]EGTFISDYSIALDR[Aib]K([2OEGgEgE-C20 diacid])Q[Aib]NFVNWLLAQSPSSGAPPPS-NH2 [Compound No. 68]

Solution:
[0.5, 0.7, 0.3, 0.8, 1.5, 0.3, 0.7]
